tested on: HCC1569 cells; settings: read-out: IC50 cell viability
MEASUREMENT NAME: IC50 (nM)
Write the answer as a number in nM, unit excluded.

Challenge: Lab request: please report IC50 under test system HCC1569 cells for NC(CC[As](O)O)C(=O)O (stereo not shown) [R-AST-OH, trivalent hydroxyarsinothricin]
Response given: 3000

###

molecular target: purified KGA (Homo sapiens); settings: read-out: apparent binding affinity (Kd)
Sequence (O94925 72-598): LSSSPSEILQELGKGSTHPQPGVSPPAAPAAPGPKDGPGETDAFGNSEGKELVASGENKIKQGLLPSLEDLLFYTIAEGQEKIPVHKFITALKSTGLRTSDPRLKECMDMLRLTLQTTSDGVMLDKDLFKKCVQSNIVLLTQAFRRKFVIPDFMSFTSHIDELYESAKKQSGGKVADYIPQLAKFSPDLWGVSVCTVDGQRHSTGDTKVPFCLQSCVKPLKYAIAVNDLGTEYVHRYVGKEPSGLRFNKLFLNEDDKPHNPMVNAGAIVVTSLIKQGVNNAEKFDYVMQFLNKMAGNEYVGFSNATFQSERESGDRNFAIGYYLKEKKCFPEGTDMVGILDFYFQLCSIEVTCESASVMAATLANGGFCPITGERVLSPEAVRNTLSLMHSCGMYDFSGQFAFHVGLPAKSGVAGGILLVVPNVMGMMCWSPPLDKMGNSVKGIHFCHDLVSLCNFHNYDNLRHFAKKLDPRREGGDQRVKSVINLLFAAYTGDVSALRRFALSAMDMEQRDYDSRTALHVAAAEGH
MEASUREMENT NAME: Kd (µM)
Write the answer as a number in µM, unit excluded.

Challenge: Requested field: Kd. Item: NC(CC[As](O)O)C(=O)O (stereo not shown) [R-AST-OH, trivalent hydroxyarsinothricin]
Response given: 40

###

biological target: KGA (Homo sapiens, UniProt O94925)
Sequence (O94925 72-598): as above
MEASUREMENT NAME: IC50 (nM)
Write the answer as a number in nM, unit excluded.

Challenge: Lab request: please report IC50 under test system KGA (Homo sapiens, UniProt O94925) for NC(CC[As](O)O)C(=O)O (stereo not shown) [R-AST-OH, trivalent hydroxyarsinothricin]
Response given: 2000

Reference source: patent US12414931B1
